As shown below, each of these compounds has a reported inhibition at 72 h, 0.1 µM value.
- test-protocol: Antiproliferative activity against human L02 cells assessed as inhibition rate at 0.1 uM incubated for 72 hrs by MTT assay relative to control
- Type: toxicity, cell-based
Give just the numeric value; % need not be written.

Recorded results for 2 compounds are shown here.
COc1cc2c(OCCOCCNC(=O)C(F)(F)[C@]3(O)O[C@H](CO)[C@@H](O)[C@H](O)[C@H]3O)c3c(c(-c4ccc5c(c4)OCO5)c2cc1OC)C(=O)OC3: 1.74
COc1cc2c(O[C@@H]3O[C@@H]4CO[C@@H](c5ccc(C)s5)O[C@H]4[C@H](O)[C@H]3O)c3c(c(-c4ccc5c(c4)OCO5)c2cc1OC)C(=O)OC3: 9.5

Q. Please report the recorded inhibition at 72 h, 0.1 µM for `CCC(CC)[C@@H]1OC[C@H]2O[C@@H](Oc3c4c(c(-c5ccc6c(c5)OCO6)c5cc(OC)c(OC)cc35)C(=O)OC4)[C@H](O)[C@@H](O)[C@@H]2O1` .
A. 8.83

Q. Recorded inhibition at 72 h, 0.1 µM for `COc1cc2c(O[C@@H]3O[C@@H]4CO[C@@H](c5ccsc5)O[C@H]4[C@H](O)[C@H]3O)c3c(c(-c4ccc5c(c4)OCO5)c2cc1OC)C(=O)OC3` , please?
A. 23.5

Q. Which inhibition at 72 h, 0.1 µM value is on record for `COc1cc2c(O[C@@H]3O[C@@H]4CO[C@@H](c5csc(Br)c5)O[C@H]4[C@H](O)[C@H]3O)c3c(c(-c4ccc5c(c4)OCO5)c2cc1OC)C(=O)OC3` ?
A. 20.8

* * *

- test-protocol: Cytotoxicity against human HN-6 cells incubated for 72 hrs by MTT assay
- Type: functional, cell-based
- test-conditions: HN-6, 72 h
test-readout: IC50 (nM)
The reply should contain only the number, in nM.

Here is how some compounds turned out for IC50.
COc1cc2c(O[C@@H]3O[C@@H]4CO[C@@H](c5ccsc5)O[C@H]4[C@H](OC(C)=O)[C@H]3OC(C)=O)c3c(c(-c4ccc5c(c4)OCO5)c2cc1OC)C(=O)OC3: 11.6
COc1cc2c(O)c3c(c(-c4ccc5c(c4)OCO5)c2cc1OC)C(=O)OC3: 2210

Q. Recorded IC50 for `COc1cc2c(O[C@@H]3O[C@@H]4CO[C@@H](C5CCCCC5)O[C@H]4[C@H](O)[C@H]3O)c3c(c(-c4ccc5c(c4)OCO5)c2cc1OC)C(=O)OC3` , please?
A. 14.8

* * *

- test-protocol: Cytotoxicity against human L02 cells incubated for 72 hrs by MTT assay
- Format: toxicity, cell-based
List of IC50 at 72 h values.

COc1cc2c(OCCOCCN)c3c(c(-c4ccc5c(c4)OCO5)c2cc1OC)C(=O)OC3: > 10 µM
COc1cc2c(OCCOCCOCCN)c3c(c(-c4ccc5c(c4)OCO5)c2cc1OC)C(=O)OC3: 7.87 µM
COc1cc2c(O)c3c(c(-c4ccc5c(c4)OCO5)c2cc1OC)C(=O)OC3 [DIPHYLLIN]: > 10 µM
COc1cc2c(O[C@@H]3O[C@@H]4CO[C@@H](c5cccs5)O[C@H]4[C@H](O)[C@H]3O)c3c(c(-c4ccc5c(c4)OCO5)c2cc1OC)C(=O)OC3: > 10 µM

Q. What does the record list as IC50 at 72 h for `COc1cc2c(O[C@@H]3O[C@@H]4CO[C@@H](c5ccsc5)O[C@H]4[C@H](OC(C)=O)[C@H]3OC(C)=O)c3c(c(-c4ccc5c(c4)OCO5)c2cc1OC)C(=O)OC3` ?
A. > 10 µM

* * *

- Test system: SCC-9
- test-protocol: Antiproliferative activity against human SCC-9 cells assessed as inhibition rate at 0.1 uM incubated for 72 hrs by MTT assay relative to control
- Assay type: functional
Measured inhibition at 0.1 µM by item
Answer format: numeric, % implied, no suffix.

Q. Look at this compound and give its reported inhibition at 0.1 µM. `COc1cc2c(O[C@@H]3O[C@@H]4CO[C@@H](C5CCOCC5)O[C@H]4[C@H](O)[C@H]3O)c3c(c(-c4ccc5c(c4)OCO5)c2cc1OC)C(=O)OC3`
A. 35.4

Q. Sample `COc1cc2c(O[C@@H]3O[C@@H]4CO[C@@H](c5cccc(C(F)(F)F)c5)O[C@H]4[C@H](O)[C@H]3O)c3c(c(-c4ccc5c(c4)OCO5)c2cc1OC)C(=O)OC3` — what was its inhibition at 0.1 µM?
A. 37.5

Q. What does the record list as inhibition at 0.1 µM for `COc1cc2c(OCCOCCNC(=O)C3(F)CNC3)c3c(c(-c4ccc5c(c4)OCO5)c2cc1OC)C(=O)OC3` ?
A. 32.6

Q. I have this compound here, `COc1cc2c(O[C@@H]3O[C@@H]4CO[C@@H](c5cccs5)O[C@H]4[C@H](O)[C@H]3O)c3c(c(-c4ccc5c(c4)OCO5)c2cc1OC)C(=O)OC3` , and I need its recorded inhibition at 0.1 µM.
A. 54

Q. Item `COc1cc2c(O[C@@H]3O[C@@H]4CO[C@@H](c5ccc(SC)cc5)O[C@H]4[C@H](O)[C@H]3O)c3c(c(-c4ccc5c(c4)OCO5)c2cc1OC)C(=O)OC3` has what recorded inhibition at 0.1 µM?
A. 41.1

Q. Could you share which inhibition at 0.1 µM value was measured for `COc1cc2c(O)c3c(c(-c4ccc5c(c4)OCO5)c2cc1OC)C(=O)OC3` ?
A. 16.6

* * *

- Test system: SCC-9
- test-protocol: Antiproliferative activity against human SCC-9 cells assessed as inhibition rate at 0.1 uM incubated for 72 hrs by MTT assay relative to control
- Type: functional
test-readout: inhibition at 0.1 µM (%)
Express it in %; write the number only.

These recorded examples may help you get a feel for the data.
COc1cc2c(O[C@@H]3O[C@@H]4CO[C@@H](C5CCCCC5)O[C@H]4[C@H](O)[C@H]3O)c3c(c(-c4ccc5c(c4)OCO5)c2cc1OC)C(=O)OC3: 46.6
COc1cc2c(OCCOCCNC(=O)[C@H]3[C@@H]4CNC[C@@H]43)c3c(c(-c4ccc5c(c4)OCO5)c2cc1OC)C(=O)OC3: 17.5

Q. Please look up its inhibition at 0.1 µM: `COc1cc2c(NC(=O)C(F)(F)[C@]3(OCc4ccccc4)O[C@H](COCc4ccccc4)[C@@H](OCc4ccccc4)[C@H](OCc4ccccc4)[C@H]3OCc3ccccc3)c3c(c(-c4ccc5c(c4)OCO5)c2cc1OC)C(=O)OC3`
A. 14.7

* * *

This section presents compounds with their documented inhibition at 0.1 µM values.
- test-protocol: Antiproliferative activity against human WSU HN-30 cells assessed as inhibition rate at 0.1 uM incubated for 72 hrs by MTT assay relative to control
- Type: functional
- test-conditions: WSU-HN30
Record the result as number plus unit.

Take a look at these entries with their results.
COc1cc2c(O[C@@H]3O[C@@H]4CO[C@@H](C5CCCCC5)O[C@H]4[C@H](O)[C@H]3O)c3c(c(-c4ccc5c(c4)OCO5)c2cc1OC)C(=O)OC3: 40.6%
COc1cc2c(O[C@@H]3O[C@@H]4CO[C@@H](c5cccc(C(F)(F)F)c5)O[C@H]4[C@H](O)[C@H]3O)c3c(c(-c4ccc5c(c4)OCO5)c2cc1OC)C(=O)OC3: 40.9%

Below: the item to evaluate.
Q. Recorded inhibition at 0.1 µM for `COc1cc2c(O[C@@H]3O[C@@H]4CO[C@@H](C5CCCC5)O[C@H]4[C@H](O)[C@H]3O)c3c(c(-c4ccc5c(c4)OCO5)c2cc1OC)C(=O)OC3` , please?
A. 40.5%
